# System: HOP-62
# experiment.description: NCI tumour cell line growth inhibition, 48 h
Calls of active or inactive are those of the source. Rule as the data show it: active = GI50 up to about 1.1 µM and inactive = higher.
Valid outcomes are listed here; reply with one: 1 for active, -1 for inactive

In: // outcome(item) with item = O=C(NCc1cccnc1)NCc1cccnc1
Out: -1

In: Just curious, what result did N#CCc1nc(-c2cc3c(ccc4ccccc43)oc2=O)cs1 get here?
Out: -1

###

# Test system: HT-29
# experiment.description: NCI tumour cell line growth inhibition, 48 h
The source made the active and inactive calls. No stated cut-off is given here; in the data, active = GI50 up to about 1.1 µM and inactive = higher.
Could you please pick one outcome from this set? Y = active, N = inactive

Examples with answers:
compound: CCC(C#N)NC(=O)NC(C#N)CC (stereo not given)
assigned.label: N
//
compound: CC(=O)c1ccc2c(c1)CC1(C2)Cc2cc3c(cc2C1)C(=O)CC3 (stereo not given)
assigned.label: Y
//
compound: Nc1ccccc1Nc1ccccc1C(=O)[O-].Nc1ccccc1Nc1ccccc1C(=O)[O-].[Zn+2]
assigned.label: N
//
compound: N#CC1(C#N)NC(c2ccccc2)C(C#N)(C#N)NC1c1ccccc1 (stereo not given)
assigned.label: N
//
compound: O=C(NC(=S)NC(=O)c1cc(O)c(O)c(O)c1)c1cc(O)c(O)c(O)c1
assigned.label: N

In: State the result this test recorded for COC(=O)C(C(=O)OC)C1CCCC(=O)C1 (stereo not given) .
Out: N

In: So what was the verdict on CC(=O)c1ccccc1NS(=O)(=O)c1ccc2nc(C)n(NS(=O)(=O)c3ccccc3C(C)=O)c(=O)c2c1 in this test?
Out: N

In: # lookup: test call for Nc1ccn(C2OC(CO)C(O)C2O)c(=O)n1 (stereo not given)
Out: N

In: How was CC(C)(C)c1cc(C(C)(C)C)c(P=C(Cl)Cl)c(C(C)(C)C)c1 (stereo not given) classified in this test?
Out: N

In: Please state the recorded outcome for this compound: CC(=O)OC(CCC1(C)OC1COc1ccc(CCNC(=O)c2ccccc2)cc1)C(C)(C)OC(C)=O (stereo not given)
Out: N

###

# Tested on: CCRF-CEM
# experiment.description: NCI tumour cell line growth inhibition, 48 h
Activity calls are given as the source filed them. Rule as the data show it: active = GI50 up to about 1.1 µM and inactive = higher.
API: response.call in active, inactive

Worked cases, answers included:
compound: CCOC(=O)C1CSCCSC1
assigned.label: inactive

compound: CCOC(=O)C(=Cc1ccccc1Br)C(=O)OCC
assigned.label: inactive

compound: C=CCCC(CCC=C)(C(=O)O)C(=O)O
assigned.label: inactive

compound: O=c1oc2ccccc2cc1-c1ccc([N+](=O)[O-])cc1
assigned.label: inactive

In: // return assay outcome for COc1ccc(-c2cc(-c3ccc(Nc4ccnc5cc(C(F)(F)F)ccc45)cc3)[nH]c(=O)c2C#N)cc1
Out: inactive

In: Short answer needed: outcome of this test for N#CC(NC12CC3CC(CC(C3)C1)C2)c1ccc2c(c1)OCO2 (stereo unspecified) ?
Out: inactive

In: Please share the test call associated with Nc1ccccc1C#CC(=O)c1cccc(C(F)(F)F)c1 .
Out: active

In: Entry OCCN1CCN(CC/C=C2/c3ccccc3Sc3ccc(Cl)cc32)CC1 : call = ?
Out: inactive

In: Please let me know the test result on file for c1ccc(C(NC2CCCCC2NCCNC2CCCCC2NC(c2ccccc2)(c2ccccc2)c2ccccc2)(c2ccccc2)c2ccccc2)cc1 (stereo unspecified) .
Out: inactive

In: Can you look up the reported call for O=C(O)c1nnsc1-c1csnn1 for me?
Out: inactive

In: How did this test come out for COc1ccc(-c2cc(-c3ccc(O)cc3O)c(C#N)c(=O)[nH]2)cc1 ?
Out: inactive

Reference source: ChEMBL document CHEMBL1201862
